- REPORTED CONDITIONS: 298.15 K; 101.33 kPa; Liquid; Vibrating tube method
RECORDED ENDPOINT: mass density (kg/m3)

C1CCCCCCC1; 831.47
CCCCCCCC; 698.6
CCCCn1cc[n+](C)c1.COS(=O)(=O)[O-] [1-butyl-3-methylimidazolium methyl sulfate]; 1212.59
CCCCCCCCC; 713.99
Cc1ccccc1; 862.17
c1ccccc1; 873.57
CCCC[n+]1ccn(C)c1.O=S(=O)([N-]S(=O)(=O)C(F)(F)F)C(F)(F)F; 1436.35
